tested on: M. abscessus subsp. abscessus ATCC 19977; test: MIC against M. abscessus in Middlebrook 7H9 + ADC; assay type: cell-based; conditions: Mycobacteroides abscessus, ATCC19977; ATCC 19977; 7H9 + ADC; read-out: MIC M. abscessus
MIC by entry:
The answer should read as a number with its unit following.

- molecule: "CO[C@H]1/C=C/O[C@@]2(C)Oc3c(C)c(O)c4c(c3C2=O)C2=NC3(CCN(CC(C)C)CC3)NC2=C(NC(=O)/C(C)=C\\C=C\\[C@H](C)[C@H](O)[C@@H](C)[C@@H](O)[C@@H](C)[C@H](OC(=O)CC(=O)N2CCC(N3CCn5ccnc5C3)CC2)[C@@H]1C)C4=O"
  MIC: "1 µg/mL"
- molecule: "CO[C@H]1/C=C/O[C@@]2(C)Oc3c(C)c(O)c4c(c3C2=O)C2=NC3(CCN(CC(C)C)CC3)NC2=C(NC(=O)/C(C)=C\\C=C\\[C@H](C)[C@H](O)[C@@H](C)[C@@H](O)[C@@H](C)[C@H](OC(=O)C(C)C(=O)N2CCc3[nH]c5ccccc5c3C2)[C@@H]1C)C4=O (stereo partly shown)"
  MIC: "0.5 µg/mL"
- molecule: "COCCCNC(=O)CC(=O)O[C@H]1[C@H](C)[C@H](O)[C@H](C)[C@@H](O)[C@@H](C)/C=C/C=C(/C)C(=O)NC2=C3NC4(CCN(CC(C)C)CC4)N=C3c3c(c(O)c(C)c4c3C(=O)[C@@](C)(O/C=C/[C@H](OC)[C@H]1C)O4)C2=O"
  MIC: "1 µg/mL"
- molecule: "CO[C@H]1/C=C/O[C@@]2(C)Oc3c(C)c(O)c4c(c3C2=O)C2=NC3(CCN(CC(C)C)CC3)NC2=C(NC(=O)/C(C)=C\\C=C\\[C@H](C)[C@H](O)[C@@H](C)[C@@H](O)[C@@H](C)[C@H](OC(=O)CC(=O)N2CCC(c3ccncc3)CC2)[C@@H]1C)C4=O"
  MIC: "0.25 µg/mL"
- molecule: "CO[C@H]1/C=C/O[C@@]2(C)Oc3c(C)c(O)c4c(c3C2=O)C2=NC3(CCN(CC(C)C)CC3)NC2=C(NC(=O)/C(C)=C\\C=C\\[C@H](C)[C@H](O)[C@@H](C)[C@@H](O)[C@@H](C)[C@H](OC(=O)CC(=O)NC2CCN(C)CC2)[C@@H]1C)C4=O"
  MIC: "1 µg/mL"

Return reported MIC; argument: CO[C@H]1/C=C/O[C@@]2(C)Oc3c(C)c(O)c4c(c3C2=O)C2=NC3(CCN(CC(C)C)CC3)NC2=C(NC(=O)/C(C)=C\C=C\[C@H](C)[C@H](O)[C@@H](C)[C@@H](O)[C@@H](C)[C@H](OC(=O)CC(=O)OCCc2ccccc2)[C@@H]1C)C4=O
4 µg/mL

For the molecule shown here, CO[C@H]1/C=C/O[C@@]2(C)Oc3c(C)c(O)c4c(c3C2=O)C2=NC3(CCN(CC(C)C)CC3)NC2=C(NC(=O)/C(C)=C\C=C\[C@H](C)[C@H](O)[C@@H](C)[C@@H](O)[C@@H](C)[C@H](OC(=O)CC(=O)N2CCCN(c3ncccn3)CC2)[C@@H]1C)C4=O , give the reported MIC.
0.125 µg/mL

###

test system: M. abscessus subsp. abscessus ATCC 19977; experiment: MIC against M. abscessus in Middlebrook 7H9 + ADC; assay type: cell-based; settings: Mycobacteroides abscessus, ATCC19977; ATCC 19977; 7H9 + ADC; read-out: MIC M. abscessus
property-label: MIC (µg/mL)
Just the number please, in µg/mL, no unit attached.

Previously resolved entries follow.
- compound: "CO[C@H]1/C=C/OC2(C)Oc3c(C)c(O)c4c(c3C2=O)C2=NC3(CCN(CC(C)C)CC3)NC2=C(NC(=O)/C(C)=C\\C=C\\[C@H](C)[C@H](O)[C@@H](C)[C@@H](O)[C@@H](C)[C@H](OC(=O)CCC(=O)N2CCC(N(C)c3ccccc3)CC2)[C@@H]1C)C4=O (stereo partly shown)"
  units-label: "µg/mL"
  MIC: 0.25
- compound: "CO[C@H]1/C=C/OC2(C)Oc3c(C)c(O)c4c(c3C2=O)C2=NC3(CCN(CC(C)C)CC3)NC2=C(NC(=O)/C(C)=C\\C=C\\[C@H](C)[C@H](O)[C@@H](C)[C@@H](O)[C@@H](C)[C@H](OC(=O)CC(=O)N2CCN(C3CCCCC3)CC2)[C@@H]1C)C4=O (stereo partly shown)"
  units-label: "µg/mL"
  MIC: 0.25
- compound: "CO[C@H]1/C=C/OC2(C)Oc3c(C)c(O)c4c(c3C2=O)C2=NC3(CCN(CC(C)C)CC3)NC2=C(NC(=O)/C(C)=C\\C=C\\[C@H](C)[C@H](O)[C@@H](C)[C@@H](O)[C@@H](C)[C@H](OC(=O)CC(=O)NC2CCN(Cc3ccccc3)C2)[C@@H]1C)C4=O (stereo partly shown)"
  units-label: "µg/mL"
  MIC: 0.25

Query: MIC; subject: CO[C@H]1/C=C/O[C@@]2(C)Oc3c(C)c(O)c4c(c3C2=O)C2=NC3(CCN(CC(C)C)CC3)NC2=C(NC(=O)/C(C)=C\C=C\[C@H](C)[C@H](O)[C@@H](C)[C@@H](O)[C@@H](C)[C@H](OC(=O)CC(=O)N2CC(n3ccnn3)C2)[C@@H]1C)C4=O
1

###

tested on: M. abscessus subsp. abscessus ATCC 19977; assay: MIC against M. abscessus in Middlebrook 7H9 + ADC; type: cell-based; details: Mycobacteroides abscessus, ATCC19977; ATCC 19977; 7H9 + ADC; read-out: MIC M. abscessus
Decision: MIC beneath 0.2 µg/mL gives TRUE; MIC meeting or exceeding 0.2 µg/mL gives FALSE.

- input-smiles: "CO[C@H]1/C=C/O[C@@]2(C)Oc3c(C)c(O)c4c(c3C2=O)C2=NC3(CCN(CC(C)C)CC3)NC2=C(NC(=O)/C(C)=C\\C=C\\[C@H](C)[C@H](O)[C@@H](C)[C@@H](O)[C@@H](C)[C@H](OC(=O)CC(=O)N2CCN(CCN(C)C)CC2)[C@@H]1C)C4=O"
  assigned-category: "FALSE"

hey, is MIC for CO[C@H]1/C=C/O[C@@]2(C)Oc3c(C)c(O)c4c(c3C2=O)C2=NC3(CCN(CC(C)C)CC3)NC2=C(NC(=O)/C(C)=C\C=C\[C@H](C)[C@H](O)[C@@H](C)[C@@H](O)[C@@H](C)[C@H](OC(=O)CC(=O)N2CCC(N3CCN(C)C(=O)C3)CC2)[C@@H]1C)C4=O lower than 0.2 µg/mL or not?
FALSE

Criterion: MIC strictly below 0.2 µg/mL. Is it met by CO[C@H]1/C=C/O[C@@]2(C)Oc3c(C)c(O)c4c(c3C2=O)C2=NC3(CCN(CC(C)C)CC3)NC2=C(NC(=O)/C(C)=C\C=C\[C@H](C)[C@H](O)[C@@H](C)[C@@H](O)[C@@H](C)[C@H](OC(=O)CC(=O)NCCN2CCN(C)CC2)[C@@H]1C)C4=O ?
FALSE

Check if MIC falls below 0.2 µg/mL for CO[C@H]1/C=C/O[C@@]2(C)Oc3c(C)c(O)c4c(c3C2=O)C2=NC3(CCN(CC(C)C)CC3)NC2=C(NC(=O)/C(C)=C\C=C\[C@H](C)[C@H](O)[C@@H](C)[C@@H](O)[C@@H](C)[C@H](OC(=O)CC(=O)N2CCC(N(C)c3ccccc3)CC2)[C@@H]1C)C4=O .
TRUE

###

Some molecules, each annotated with its measured MIC.
tested on: M. abscessus subsp. abscessus ATCC 19977; assay: MIC against M. abscessus in Middlebrook 7H9 + ADC; type: cell-based; settings: Mycobacteroides abscessus, ATCC19977; ATCC 19977; 7H9 + ADC; read-out: MIC M. abscessus
State the answer as a number, implicitly in µg/mL.

Known results for molecules:
- molecule: "CO[C@H]1/C=C/OC2(C)Oc3c(C)c(O)c4c(c3C2=O)C2=NC3(CCN(CC(C)C)CC3)NC2=C(NC(=O)/C(C)=C\\C=C\\[C@H](C)[C@H](O)[C@@H](C)[C@@H](O)[C@@H](C)[C@H](OC(=O)CC(=O)N2CCn3c2nc2ccccc23)[C@@H]1C)C4=O (stereo partly drawn)"
  observed-measurement: 0.5
- molecule: "CO[C@H]1/C=C/O[C@@]2(C)Oc3c(C)c(O)c4c(c3C2=O)C2=NC3(CCN(CC(C)C)CC3)NC2=C(NC(=O)/C(C)=C\\C=C\\[C@H](C)[C@H](O)[C@@H](C)[C@@H](O)[C@@H](C)[C@H](OC(=O)C(C)C(=O)N2CCC(N(C)c3ccccc3)CC2)[C@@H]1C)C4=O (stereo partly drawn)"
  observed-measurement: 0.125

Quick check: MIC on M. abscessus subsp. abscessus ATCC 19977, item COc1cc(NC2CCN(C(=O)CC(=O)O[C@H]3[C@H](C)[C@H](O)[C@H](C)[C@@H](O)[C@@H](C)/C=C/C=C(/C)C(=O)NC4=C5NC6(CCN(CC(C)C)CC6)N=C5c5c(c(O)c(C)c6c5C(=O)[C@@](C)(O/C=C/[C@H](OC)[C@H]3C)O6)C4=O)CC2)cc(OC)c1 ?
0.25

Values compiled from patent US20250051356A1.
